# MEASUREMENT_PROTOCOL: Coupled enzyme assay (ADH, with and without MSAD): hydratase and hydratase/decarboxylase activity and product profile of Cg10062 and variants
# Format: biochemical
# CONDITION_LABEL: ACA 0.5 mM, pH 8; enzyme final concentration differs per variant (0.025-1.50 mg mL^−1), rates not directly comparable
// values below are reported Rate in the presence of MSAD

Look up Rate in the presence of MSAD: Cg10062(E114N): Novel hydratase-only Cg10062 variant with E114N mutation, SEQ ID NO: 24 and 62 (protein, Cg10062(E114N) from Corynebacterium glutamicum codon-optimized for Escherichia coli) PTYTCWSQRIRISREAKQRIAEAITDAHHELAHAPKYLVQVIFNEVEPDSYFIAAQSASENHIWVQATIRSGRTEKQKEELLLRLTQEIALILGIPNEEVWVYITEIPGSNMTNYGRLLMEPGEEEKWFNSLPEGLRERLTELEGSSE
67 µM/min

Request the reported Rate in the presence of MSAD associated with Cg10062(E114D): Previously described Cg10062 variant with E114D mutation, SEQ ID NO: 23 and 61 (protein, Cg10062(E114D) from Corynebacterium glutamicum codon-optimized for Escherichia coli) PTYTCWSQRIRISREAKQRIAEAITDAHHELAHAPKYLVQVIFNEVEPDSYFIAAQSASENHIWVQATIRSGRTEKQKEELLLRLTQEIALILGIPNEEVWVYITEIPGSNMTDYGRLLMEPGEEEKWFNSLPEGLRERLTELEGSSE
90 µM/min

Please look up its Rate in the presence of MSAD: Cg10062(E114D-Y103F): Cg10062 double variant E114D-Y103F, SEQ ID NO: 33 and 71 (protein, Cg10062(E114D-Y103F) from Corynebacterium glutamicum codon-optimized for Escherichia coli) PTYTCWSQRIRISREAKQRIAEAITDAHHELAHAPKYLVQVIFNEVEPDSYFIAAQSASENHIWVQATIRSGRTEKQKEELLLRLTQEIALILGIPNEEVWVFITEIPGSNMTDYGRLLMEPGEEEKWFNSLPEGLRERLTELEGSSE
39 µM/min
